// provenance: FireProtDB (doi:10.1021/bi00146a008)

B1: Lysozyme C, P61626 (parent)
chain: MKALIVLGLVLLSVTVQGKVFERCELARTLKRLGMDGYRGISLANWMCLAKWESGYNTRATNYNAGDRSTDYGIFQINSRYWCNDGKTPGAVNACHLSCSALLQDNIADAVACAKRVVRDPQGIRAWVAWRNRCQNRDVRQYVQGCGV

Variants of: B1
experimental-parameters: Homo sapiens; pH 2.8; Thermal; DSC; glycine-HCl 50 mM; reversible: yes; structure 1LZ1; whole UniProt chain shown
# key: entry, value: change of melting temperature, mutant - wild type (higher = more stable)
recorded-endpoint: change of melting temperature, mutant - wild type (higher = more stable) (°C)

1. A65P : 0.3
2. D109P : -1.1
3. P89G P121G : -4.5
4. V128P : 1.2
5. P121G : -0.1
6. P89G : -4.7
